Consider the following compounds; for each one, report its collision cross section in nitrogen.
- assayNotes: collision cross section in nitrogen (drift tube, single-field); higher = larger gas-phase ion size;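 further: chemical standards at 10 µM analysed by drift tube IMS-QTOF MS in about 3.95 torr nitrogen, mean of duplicate injections differing ≤1%, mass error below 10 ppm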
- measurementContext: ion type: [M+H]; ion source: ESI; ion mode: Positive
Counter-ions that a name gives are not always drawn.
Numbers only, in Å².

CCCCc1c(C)nc(NCC)nc1OS(=O)(=O)N(C)C [Bupirimate] : 175.8
O=C(Nc1ccc2[nH]ccc2c1)c1cc2cc(F)ccc2n1Cc1cccc(F)c1 : 195.7
Nc1ccc([As](=O)(O)O)cc1 : 130.9
Cc1ccc2c(c1)CCCN2 [6-Methyl-1,2,3,4-tetrahydroquinoline] : 134.8

As a next step, examine the compound that follows.
Q: GET /values?readout=collision cross section in nitrogen&item= O=C(O)COCCN1CCN(C(c2ccccc2)c2ccc(Cl)cc2)CC1 (stereo not given) [Cetirizine hydrochloride (1:2)]
Result: 200.3

###

- assayNotes: collision cross section in nitrogen (drift tube, single-field); higher = larger gas-phase ion size
- measurementContext: ion type: [M+Na]; ion source: ESI; ion mode: Positive
Counter-ions that a name gives are not always drawn.
measurementName: collision cross section in nitrogen (Å²)
One number for each entry, in Å².

Take a look at these entries with their results.
CNc1cnn(-c2cccc(C(F)(F)F)c2)c(=O)c1Cl [Norflurazon] : 171.9
CC(=O)Oc1c(C)c(C)c2c(c1C)CC[C@@](C)(CCC[C@H](C)CCC[C@H](C)CCCC(C)C)O2 (racemic) [dl-alpha-Tocopheryl acetate] : 222
CCCSP(=O)(OCC)Oc1ccc(Br)cc1Cl (configuration not stated) [Profenofos] : 184.3

The following compounds each have a reported value; give each one's collision cross section in nitrogen.
1. CCCCOCCOCCOC(C)=O [Diethylene glycol monobutyl ether acetate]
2. C=CCOC(=O)c1ccc(C(=O)OCC=C)c(C(=O)OCC=C)c1 [Triallyl trimellitate]

Result:
1: 150.1; 2: 189.3

The following compounds each have a reported value; give each one's collision cross section in nitrogen.
1. Cc1cc(CCC(=O)OCC(C)(C)C2OCC3(CO2)COC(C(C)(C)COC(=O)CCc2cc(C)c(O)c(C(C)(C)C)c2)OC3)cc(C(C)(C)C)c1O (configuration not stated) [Sumilizer GA 80]
2. CC[C@H](C)C(=O)O[C@H]1C[C@@H](C)C=C2C=C[C@H](C)[C@H](CC[C@@H]3C[C@@H](O)CC(=O)O3)[C@H]21 [Lovastatin]
3. CO/N=C(/C1=NOCCO1)c1ccccc1Oc1ncnc(Oc2ccccc2Cl)c1F [Fluoxastrobin]
4. O=C(NS(=O)(=O)/C=C/c1ccccc1)c1ccc(F)cc1Cl
5. CN(C)CCN(Cc1cccs1)c1ccccn1 [Methapyrilene fumarate]
6. CC(C)c1cccc(C(C)C)c1NC(=O)NS(=O)(=O)c1cc(C(C)(C)O)co1

Result:
261.6
203.9
208.1
188.9
160.3
207.5

The following compounds each have a reported value; give each one's collision cross section in nitrogen.
1. CC(=NNC(=O)Nc1cc(F)cc(F)c1)c1ncccc1C(=O)O [Diflufenzopyr]
2. CCC(=NOC/C=C/Cl)C1=C(O)CC(C2CCOCC2)CC1=O (configuration not stated) [Tepraloxydim]
3. CCOc1nc2cccc(C(=O)OC(C)OC(=O)OC3CCCCC3)c2n1Cc1ccc(-c2ccccc2-c2nnn[nH]2)cc1 (configuration not stated) [Candesartan cilexetil]
4. CC1=NNC(=O)N(/N=C/c2cccnc2)C1 [Pymetrozine]
5. Clc1ccc(COC(Cn2ccnc2)c2ccc(Cl)cc2Cl)cc1 (configuration not stated) [Econazole nitrate]
6. C=C(C)C(=O)OCCOC1CC2CC1C1C=CCC21 (configuration not stated) [(Dicyclopentadienyloxy)ethyl methacrylate]

Result:
[181.6, 191.1, 252.1, 155.8, 193.2, 170.7]

###

- assayNotes: collision cross section in nitrogen (drift tube, single-field); higher = larger gas-phase ion size
- measurementContext: ion type: [M+H]; ion source: APCI; ion mode: Positive
measurementName: collision cross section in nitrogen (Å²)
Numbers only, in Å².

Cc1ccc2ccccc2n1 [2-Methylquinoline] : 125.2
CCOC(=O)c1ccc(N(C)C)cc1 [Parbenate] : 149.3
CCOc1cccc(-n2cc(C(=O)N3CCN(c4cc(C(=O)O)c5ccccc5c4)CC3)nc2-c2ccc(C)cc2)c1 : 228.4
CCc1c(C(=O)O)c(=O)cnn1-c1ccc(Cl)cc1 [Clofencet-potassium] : 159.2

Q: GET /values?readout=collision cross section in nitrogen&item= CCCCCCCC(=O)N(C)C [N,N-Dimethyloctanamide]
Result: 146.6

###

Consider the following molecules; for each one, report its collision cross section in nitrogen.
- assayNotes: collision cross section in nitrogen (drift tube, single-field); higher = larger gas-phase ion size
- measurementContext: ion type: [M-H]; ion source: ESI; ion mode: Negative

Take a look at these entries with their results.
C[C@H](CCC(=O)O)[C@H]1CC[C@H]2[C@@H]3CC[C@@H]4C[C@H](O)CC[C@]4(C)[C@H]3CC[C@]12C : 203 Å²
O=C(O)c1cc(Cl)cc(Cl)c1O : 130.7 Å²
Cc1cc(N)n(-c2ccccc2)n1 : 136.1 Å²
CCCCNS(=O)(=O)c1ccc(C)cc1 [N-Butyl-p-toluenesulfonamide] : 155 Å²
CCCCCCC(=O)O : 137.3 Å²
O=C(Nc1ccc2c(c1)Cc1ccccc1-2)C(F)(F)F [N-(2-Fluorenyl)-2,2,2-trifluoroacetamide] : 160.4 Å²
CCCC[C@H]1CN(CC2CCOCC2)C(=O)OC12CCN(C1(C)CCN(C(=O)c3c(C)ncnc3C)CC1)CC2 : 248.6 Å²

Q: GET /values?readout=collision cross section in nitrogen&item= O=c1cc(-c2ccccc2)oc2cc(O)cc(O)c12
Result: 157.7 Å²

###

- assayNotes: collision cross section in nitrogen (drift tube, single-field); higher = larger gas-phase ion size
- measurementContext: ion type: [M+Na]; ion source: ESI; ion mode: Positive
Where a name gives a salt, the structure may show the parent alone.
measurementName: collision cross section in nitrogen (Å²)
Answers are plain numbers, in Å².

Take a look at these entries with their results.
C[C@@H](Oc1ccc(CNC(=O)c2cccnc2Oc2ccc3c(c2)OCO3)c(F)c1)C(=O)O : 197.1
CCCCOC(=O)CC(O)(CC(=O)OCCCC)C(=O)OCCCC [Tributyl citrate] : 202.7
CC(C)C1(C)N=C(c2ncccc2C(=O)O)NC1=O (stereo not drawn) : 173.1

The following compounds each have a reported value; give each one's collision cross section in nitrogen.
1. O=C1OC(c2ccc(O)cc2)(c2ccc(O)cc2)c2ccccc21
2. Nc1nc(N)c2nc(-c3ccccc3)c(N)nc2n1
3. CCOC(=O)COc1cc(-c2nn(C)c(OC(F)F)c2Cl)c(F)cc1Cl
4. COc1cccc2c1cc([N+](=O)[O-])c1c(C(=O)O)cc3c(c12)OCO3 [Sodium aristolochate-I]
5. COC(=O)c1ccc(I)cc1S(=O)(=O)NC(=O)Nc1nc(C)nc(OC)n1 [Iodosulfuron methyl ester sodium salt]

Result:
191.8
173
198.4
185.6
195.8

###

- assayNotes: collision cross section in nitrogen (drift tube, single-field); higher = larger gas-phase ion size
- measurementContext: ion type: [M+H]; ion source: APCI; ion mode: Positive
Counter-ions that a name gives are not always drawn.
measurementName: collision cross section in nitrogen (Å²)
Numbers only, in Å².

Take a look at these entries with their results.
Nc1cccnc1 : 115
CCOc1cc([N+](=O)[O-])c(OCC)cc1N1CCOCC1 : 173.1
NC(=O)c1nc(-c2cccc(-c3cc(F)ccc3OCC(F)(F)C(F)(F)F)c2)n[nH]1 : 189.4
CC1CN1P(=O)(N1CC1C)N1CC1C (centres undefined) : 142.5
CSc1ccc(C(=O)C(C)(C)N2CCOCC2)cc1 : 166.4
Nc1ccc2cc3ccc(N)cc3nc2c1 [Proflavin hydrochloride] : 143.4
CNP(=O)(OC)Oc1ccc(C(C)(C)C)cc1Cl (centres undefined) [Crufomate] : 165.2
N=C(Nc1ccccc1)Nc1ccccc1 : 150.7

Q: GET /values?readout=collision cross section in nitrogen&item= Nc1ccc(N=Nc2ccccc2)c(N)c1
Result: 150.7

###

- assayNotes: collision cross section in nitrogen (drift tube, single-field); higher = larger gas-phase ion size
- measurementContext: ion type: [M+Na]; ion source: ESI; ion mode: Positive
measurementName: collision cross section in nitrogen (Å²)
Give bare numbers, in Å².

CC(=NNC(=O)Nc1cc(F)cc(F)c1)c1ncccc1C(=O)O [Diflufenzopyr-sodium] : 182.3
O=C1C=CC(=O)N1c1ccc(Cc2ccc(N3C(=O)C=CC3=O)cc2)cc1 [Bismaleimide] : 182.7
CCCCCCCC/C=C\CCCCCCCC(=O)N(C)CC(=O)O : 196
Cc1cc(C2(c3cc(C)c(O)cc3C)OS(=O)(=O)c3ccccc32)c(C)cc1O : 200.6
CCc1c(C)cc(N)c(CC)c1N : 145.3

The following compounds each have a reported value; give each one's collision cross section in nitrogen.
1. O=C1OC[C@H](Cc2cccc(O)c2)[C@H]1Cc1cccc(O)c1 [(-)-Enterolactone]
2. Cc1ccc2nc(-c3ccc(N)cc3)sc2c1S(=O)(=O)O
3. CCCCc1c(C)nc(NCC)nc1OS(=O)(=O)N(C)C [Bupirimate]

Result:
[178.2, 185.9, 181.8]

The following compounds each have a reported value; give each one's collision cross section in nitrogen.
1. CC(C)C(OC(=O)c1ccccc1)C(C)(C)COC(=O)c1ccccc1 (configuration not stated) [2,2,4-Trimethylpentane-1,3-diyl dibenzoate]
2. CNC(=O)Oc1cc(C)cc(C(C)C)c1
3. CCCC(C)(COC(N)=O)COC(=O)NC(C)C (configuration not stated)
4. c1cc(C(c2ccc(OCC3CO3)cc2)c2ccc(OCC3CO3)cc2)ccc1OCC1CO1 (configuration not stated)
5. CC1=C(C#N)C(=O)N(C)C(=O)C1 [1,2-Dihydro-6-hydroxy-1,4-dimethyl-2-oxonicotinonitrile]
6. CC1(C)CCC[C@]2(C)[C@H]3CC(=O)O[C@]3(C)CC[C@@H]12 [(3aR)-(+)-Sclareolide]
7. CCOP(=O)(OCC)Oc1nc(Cl)c(Cl)cc1Cl
8. CN(C)CCOCCN(C)CCO [2-[{2-[2-(Dimethylamino)ethoxy]ethyl}(methyl)amino]ethanol]

Result:
[194.6, 157.5, 172.2, 199.3, 144.6, 181.5, 171, 144]

Q: GET /values?readout=collision cross section in nitrogen&item= CC(c1cc2ccccc2s1)N(O)C(N)=O (configuration not stated)
Result: 156.4

Source of measurements: the supplement of paper PMC12317010
